# target_or_test_system: T1, mouse LTβR extracellular domain fused with an Fc fragment at the C-terminus (mouse, UniProt P50284 31-223)
# T1 construct: extracellular domain; Bought; also called mLTβR; not shown: Fc fragment at the C-terminus
# T1 sequence (P50284 31-223): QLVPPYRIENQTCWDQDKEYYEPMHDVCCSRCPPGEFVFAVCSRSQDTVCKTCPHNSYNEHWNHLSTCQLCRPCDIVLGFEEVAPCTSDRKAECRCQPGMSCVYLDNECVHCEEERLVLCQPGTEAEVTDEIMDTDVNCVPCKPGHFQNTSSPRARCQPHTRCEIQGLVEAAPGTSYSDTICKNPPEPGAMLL
# assay_overview: ELISA on coated target-Fc
measured_endpoint: EC50 (µg/mL)
Report the figure in µg/mL without appending any unit label.

LIGHT-36 (ligand, Printed mutations: H208Y; Soluble protein carries an N-terminal His tag) DGPAGSWEQLIQERRSHEVNPAAHLTGANSSLTGSGGPLLWETQLGLAFLRGLSYHDGALVVTKAGYYYIYSKVQLGGVGCPLGLASTITHGLYKRTPRYPEELELLVSQQSPCGRATSSSRVWWDSSFLGGVVYLEAGEKVVVRVLDERLVRLRDGTRSYFGAFMV; 0.27
LIGHT-45 (ligand, Printed mutations: G150S, S160P, T161S, L220S, R223H; Soluble protein carries an N-terminal His tag) DGPAGSWEQLIQERRSHEVNPAAHLTGANSSLTGSGGPLLWETQLGLAFLRGLSYHDGALVVTKAGYYYIYSKVQLSGVGCPLGLAPSITHGLYKRTPRYPEELELLVSQQSPCGRATSSSRVWWDSSFLGGVVHLEAGEKVVVRVSDEHLVRLRDGTRSYFGAFMV; 0.0264

Query: Find the recorded EC50 belonging to LIGHT-35 (ligand, Printed mutations: T161S, L220S, E222N; Soluble protein carries an N-terminal His tag) DGPAGSWEQLIQERRSHEVNPAAHLTGANSSLTGSGGPLLWETQLGLAFLRGLSYHDGALVVTKAGYYYIYSKVQLGGVGCPLGLASSITHGLYKRTPRYPEELELLVSQQSPCGRATSSSRVWWDSSFLGGVVHLEAGEKVVVRVSDNRLVRLRDGTRSYFGAFMV and report it.
Result: 0.0383
